Reported Fold change binding by item:
- Target Under Test: T1, human CD19 (human, UniProt P15391 20-556)
- T1 construct: also called B-cell surface antigen B4; B-cell antigen CD19
- T1 sequence: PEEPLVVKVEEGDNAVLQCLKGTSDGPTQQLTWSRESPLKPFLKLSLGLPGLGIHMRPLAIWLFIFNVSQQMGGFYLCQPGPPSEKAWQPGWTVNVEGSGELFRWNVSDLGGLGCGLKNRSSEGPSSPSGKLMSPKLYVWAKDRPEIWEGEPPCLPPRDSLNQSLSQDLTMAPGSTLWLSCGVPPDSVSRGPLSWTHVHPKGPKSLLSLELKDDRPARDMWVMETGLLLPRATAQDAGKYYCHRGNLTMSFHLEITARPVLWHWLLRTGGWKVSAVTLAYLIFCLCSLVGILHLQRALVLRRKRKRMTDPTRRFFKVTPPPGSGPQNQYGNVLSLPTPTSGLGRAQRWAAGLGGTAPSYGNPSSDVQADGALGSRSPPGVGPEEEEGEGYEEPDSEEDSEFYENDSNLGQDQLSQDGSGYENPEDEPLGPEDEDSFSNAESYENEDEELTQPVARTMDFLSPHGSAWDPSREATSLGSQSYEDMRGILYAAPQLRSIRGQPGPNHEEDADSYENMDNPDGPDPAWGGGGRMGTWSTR
- Measurement Protocol: binding affinity relative to the parent H1L1 mAb (Example 5); assay and format not named on the sheet
Give just the numeric value; fold need not be written.

Below, 3 binders whose answers are already recorded.
{"Binder": "H1.201 / L1.162 (antibody, V domains shown, vs H1L1 (Kabat): VH D55S/S100cT; VL L27cQ/S27eA/G29A/A55N/F96I; also called 4G7 H1.201_L1.162) VH: EVQLVESGGGLVKPGGSLKLSCAASGYTFTSYVMHWVRQAPGKGLEWIGYINPYNSGTKYNEKFQGRVTISSDKSISTAYMELSSLRSEDTAMYYCARGTYYYGTRVFDYWGQGTLVTVSS VL: DIVMTQSPATLSLSPGERATLSCRSSKSLQNANANTYLYWFQQKPGQSPQLLIYRMSNLNSGVPDRFSGSGSGTEFTLTISSLEPEDFAVYYCMQHLEYPITFGAGTKLEIK", "Fold change binding / fold": 3.97}
{"Binder": "H1 / L1.17 (antibody, V domains shown, vs H1L1 (Kabat): VL E93T; also called 4G7 H1_L1.17) VH: EVQLVESGGGLVKPGGSLKLSCAASGYTFTSYVMHWVRQAPGKGLEWIGYINPYNDGTKYNEKFQGRVTISSDKSISTAYMELSSLRSEDTAMYYCARGTYYYGSRVFDYWGQGTLVTVSS VL: DIVMTQSPATLSLSPGERATLSCRSSKSLLNSNGNTYLYWFQQKPGQSPQLLIYRMSNLASGVPDRFSGSGSGTEFTLTISSLEPEDFAVYYCMQHLTYPFTFGAGTKLEIK", "Fold change binding / fold": 1.57}
{"Binder": "H1.203 / L1.164 (antibody, V domains shown, vs H1L1 (Kabat): VH D55S/K58E/S100cT; VL L27cQ/S27eA/A55N/F96I; also called 4G7 H1.203_L1.164) VH: EVQLVESGGGLVKPGGSLKLSCAASGYTFTSYVMHWVRQAPGKGLEWIGYINPYNSGTEYNEKFQGRVTISSDKSISTAYMELSSLRSEDTAMYYCARGTYYYGTRVFDYWGQGTLVTVSS VL: DIVMTQSPATLSLSPGERATLSCRSSKSLQNANGNTYLYWFQQKPGQSPQLLIYRMSNLNSGVPDRFSGSGSGTEFTLTISSLEPEDFAVYYCMQHLEYPITFGAGTKLEIK", "Fold change binding / fold": 5.58}

Input line: Which measured Fold change binding value corresponds to H1.203 / L1.163 (antibody, V domains shown, vs H1L1 (Kabat): VH D55S/K58E/S100cT; VL L27cQ/S27eA/G29S/A55N/F96I; also called 4G7 H1.203_L1.163) VH: EVQLVESGGGLVKPGGSLKLSCAASGYTFTSYVMHWVRQAPGKGLEWIGYINPYNSGTEYNEKFQGRVTISSDKSISTAYMELSSLRSEDTAMYYCARGTYYYGTRVFDYWGQGTLVTVSS VL: DIVMTQSPATLSLSPGERATLSCRSSKSLQNANSNTYLYWFQQKPGQSPQLLIYRMSNLNSGVPDRFSGSGSGTEFTLTISSLEPEDFAVYYCMQHLEYPITFGAGTKLEIK ?
Output line: 3.2
